B1: CPN1 (parent)
chain: RGVRRTASTPTPDDKLFQKLAKVY

Variants of: B1
Assay info: protein stability index of a GFP-peptide fusion (GPS, HEK-293T) (PSI 1-6); higher = more stable;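 further: lentivirally expressed fusions sorted by FACS into six bins by GFP to DsRed ratio, PSI derived from sequencing read proportions per bin multiplied by bin number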
Test conditions: c terminus: a fixed tail appended
// FALSE strictly below 2 in protein stability index; TRUE otherwise

- RGVRRTASTPTPDDKLVQKLAKVY [F17V]: TRUE
- RGVRRTASTPTPDDKLFPKLAKVY [Q18P]: TRUE
- RGVRRTFSTPTPDDKLFQKLAKVY [A7F]: FALSE
- RGVRRTASKPTPDDKLFQKLAKVY [T9K]: TRUE
- RNVRRTASTPTPDDKLFQKLAKVY [G2N]: TRUE
- RGVRRTASGPTPDDKLFQKLAKVY [T9G]: TRUE
- RGVRRTASTPTPDDKLFQKLAIVY [K22I]: FALSE
- RGVRRTASTPTPDDKLFQKLCKVY [A21C]: TRUE
- RGVRRTASTPTPDDKSFQKLAKVY [L16S]: TRUE
- MGVRRTASTPTPDDKLFQKLAKVY [R1M]: FALSE
- RGLRRTASTPTPDDKLFQKLAKVY [V3L]: TRUE
- RGVRRTASCPTPDDKLFQKLAKVY [T9C]: TRUE
- RGVRPTASTPTPDDKLFQKLAKVY [R5P]: TRUE
- RGVRRTASTPTWDDKLFQKLAKVY [P12W]: TRUE
- RGVRRTASTPTPDDKLFQKLAQVY [K22Q]: FALSE
- RDVRRTASTPTPDDKLFQKLAKVY [G2D]: TRUE
- RGVRRTASTPTPDDKLFQKLAKVN [Y24N]: TRUE
- RGVRRTASTPTPDDKLEQKLAKVY [F17E]: TRUE
- RGVRRTASHPTPDDKLFQKLAKVY [T9H]: TRUE
- RGWRRTASTPTPDDKLFQKLAKVY [V3W]: TRUE
- RGVRRTAMTPTPDDKLFQKLAKVY [S8M]: FALSE
- RGVRRTASTPKPDDKLFQKLAKVY [T11K]: TRUE
- TGVRRTASTPTPDDKLFQKLAKVY [R1T]: FALSE
- RGVRSTASTPTPDDKLFQKLAKVY [R5S]: TRUE
- RGVRRTASTPWPDDKLFQKLAKVY [T11W]: FALSE
- RIVRRTASTPTPDDKLFQKLAKVY [G2I]: FALSE
- RGVRRTASTPTPDDKLFQKLAEVY [K22E]: FALSE
- RGVRRTASTPTPDDKLFGKLAKVY [Q18G]: TRUE
- RGVRRTASTPIPDDKLFQKLAKVY [T11I]: FALSE
- RGVRRTASTPTPDDKLFKKLAKVY [Q18K]: FALSE
- KGVRRTASTPTPDDKLFQKLAKVY [R1K]: FALSE
- RGVRRTASTPTPDDKLAQKLAKVY [F17A]: TRUE
- RGVRRTASTPTPDDKLNQKLAKVY [F17N]: TRUE
- RGVRRTASTPTPDDKLFQKTAKVY [L20T]: TRUE
- RGVRRTASTPTPDDKPFQKLAKVY [L16P]: TRUE
- RGVRRTALTPTPDDKLFQKLAKVY [S8L]: FALSE
- RGVRRTASTPTPDDKEFQKLAKVY [L16E]: TRUE
- RGVRRTASTPTPDDKLFQKPAKVY [L20P]: TRUE
- HGVRRTASTPTPDDKLFQKLAKVY [R1H]: TRUE
- RGVRFTASTPTPDDKLFQKLAKVY [R5F]: FALSE
- RHVRRTASTPTPDDKLFQKLAKVY [G2H]: FALSE
- RGVRRTASTPTPDDKLFQKLAKMY [V23M]: FALSE
